Provide the recorded MIC for the entries that follow.
test system: Candida albicans
Quick note: give the figure in µg/mL, leave out the unit.

MIC recorded for this compound, COC(=O)[C@H](C)NC(=O)c1cc(=O)n(Cc2cn(Cc3ccccc3)nn2)c2ccccc12 , is 10000

MIC recorded for this compound, COC(=O)[C@H](C)NC(=O)c1cc(=O)n(Cc2cn(Cc3ccccc3C)nn2)c2ccccc12 , is 10000

MIC recorded for this compound, COC(=O)C(NC(=O)c1ccccc1)n1cc(Cn2c(=O)cc(C(=O)N[C@@H](C)C(=O)OC)c3ccccc32)nn1 (stereo partly shown) , is 5000

MIC recorded for this compound, C#CCn1c(=O)cc(C(=O)N[C@@H](C)C(=O)OC)c2cc(Br)ccc21 , is 10000

====

Provide the recorded log10 MIC for the entries that follow.
Lab note - MIC converted to log10 from values in mg/L.

Per the reported Bacillus subtilis ATCC 3366 data, COC(=O)[C@H](C)NC(=O)c1cc(=O)n(Cc2cn(Cc3ccccc3Br)nn2)c2ccccc12 has log10 MIC of 1.89

Per the reported Bacillus subtilis ATCC 3366 data, C#CCn1c(=O)cc(C(=O)N[C@@H](C)C(=O)OC)c2cc(Br)ccc21 has log10 MIC of 3.40

Per the reported Bacillus subtilis ATCC 3366 data, COC(=O)[C@H](C)NC(=O)c1cc(=O)n(Cc2cn(Cc3ccccc3C)nn2)c2ccccc12 has log10 MIC of 3.40

Per the reported Bacillus subtilis ATCC 3366 data, C#CCn1c(=O)cc(C(=O)N[C@@H](C)C(=O)OC)c2ccccc21 has log10 MIC of 3.70

Per the reported Bacillus subtilis ATCC 3366 data, COC(=O)C(NC(=O)c1ccccc1)n1cc(Cn2c(=O)cc(C(=O)N[C@@H](C)C(=O)OC)c3ccccc32)nn1 (stereo partly drawn) has log10 MIC of 2.49

Per the reported Bacillus subtilis ATCC 3366 data, COC(=O)[C@H](C)NC(=O)c1cc(=O)n(Cc2cn(Cc3ccccc3Br)nn2)c2ccc(Br)cc12 has log10 MIC of 0.99

Per the reported Bacillus subtilis ATCC 3366 data, COC(=O)[C@H](C)NC(=O)c1cc(=O)n(Cc2cn(Cc3ccccc3C)nn2)c2ccc(Br)cc12 has log10 MIC of 2.49

Per the reported Bacillus subtilis ATCC 3366 data, CCCCCn1cc(Cn2c(=O)cc(C(=O)N[C@@H](C)C(=O)OC)c3ccccc32)nn1 has log10 MIC of 2.49

Per the reported Bacillus subtilis ATCC 3366 data, COC(=O)[C@H](C)NC(=O)c1cc(=O)n(Cc2cn(Cc3ccccc3)nn2)c2ccccc12 has log10 MIC of 3.40
